pIC50: −log10 of the molar value.
Below are pIC50 values for central CCK-B receptor (Cavia porcellus, UniProt H0VZC5) collected from several publications.

Here are 3 compounds together with their reported answers.
COMPOUND	pIC50
CC(C)C[C@@H](NC(=O)OC(C)(C)C)C(=O)N1CC(C[C@@H]2NC(=O)c3ccccc3-n3c2nc2ccccc2c3=O)c2ccccc21 (single isomer, unassigned; isomer 1)	< 4.00
CC(C)(C)CCNC(=O)[C@@H](CCC(=O)NC(Cc1ccccc1)C(=O)O)NC(=O)c1cccc(Cl)c1 (some centres unmarked)	< 4.52
O=C1C=C(Cl)C(O)(c2ccccc2)N1C1CCCCC1 (centres unmarked)	< 5.00

For the record CCCCCN1C[C@@H](C(=O)O)[C@@H](NC(=O)c2ccc(Cl)cc2)C1=O (relative stereo) , what value of pIC50 is listed for central CCK-B receptor (Cavia porcellus, UniProt H0VZC5)? < 5.00

For the record CCCCCCN1C(=O)C=C(Cl)C1(O)c1ccc(Cl)cc1 (centres unmarked) , what value of pIC50 is listed for central CCK-B receptor (Cavia porcellus, UniProt H0VZC5)? < 5.00
